# testedSystem: Transcriptional regulator MvfR (Pseudomonas aeruginosa PA14, UniProt A0A072ZLE6)
# Sequence (A0A072ZLE6 whole entry): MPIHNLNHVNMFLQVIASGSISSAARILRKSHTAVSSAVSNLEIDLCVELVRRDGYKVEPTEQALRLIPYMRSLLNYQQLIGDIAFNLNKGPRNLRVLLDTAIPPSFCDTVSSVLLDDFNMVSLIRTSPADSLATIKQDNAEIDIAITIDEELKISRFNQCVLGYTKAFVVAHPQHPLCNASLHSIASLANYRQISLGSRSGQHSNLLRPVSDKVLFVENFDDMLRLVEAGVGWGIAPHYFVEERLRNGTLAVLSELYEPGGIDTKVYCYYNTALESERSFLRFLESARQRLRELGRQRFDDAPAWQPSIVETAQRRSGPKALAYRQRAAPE
# assayProtocol: Antagonist activity at Pseudomonas aeruginosa PA14 PqsR expressed in Eschericia coli DH5-alpha assessed as inhibition of PQS-induced protein activation by beta-galactosidase reporter gene assay
observationType: EC50 (µM)
Give the quantity in µM, number only.

Req: Find the measured EC50: item Nc1nnc(-c2cccc(Cl)c2)o1 , target or system Transcriptional regulator MvfR (Pseudomonas aeruginosa PA14, UniProt A0A072ZLE6).
Resp: 26.7

Req: // next record N#Cc1cccc(-c2nnc(N)o2)c1
Resp: 17.8

Req: What do you get for FC(F)(F)c1cccc(-c2nnco2)c1 ?
Resp: 101

Req: Consider next the compound Nc1nnc(-c2cccc(C(F)(F)F)c2)o1 in the same way.
Resp: 7.5

Req: Continue with Nc1nnc(-c2cccc(Br)c2)o1
Resp: 7.5

Req: Input Nc1nnc(-c2cccc(OC(F)(F)F)c2)o1
Resp: 46.5

Req: Would you kindly repeat that for Cc1cccc(-c2nnc(N)o2)c1 ?
Resp: 57.8

---

# testedSystem: Transcriptional regulator MvfR (Pseudomonas aeruginosa PA14)
# assayProtocol: Binding affinity to Pseudomonas aeruginosa PA14 biotinylated His6SUMO-tagged PqsR expressed in Eschericia coli BL21 (lamda DE3) by isothermal titration calorimetry
# pKd per entry
Convention used: pKd is expressed as -log10 of the molar concentration.

chemicalStructure: FC(F)(F)c1cc(-c2cccs2)n[nH]1
pKd: 5.07
--
chemicalStructure: CC(C)(C)c1cccc(-c2nnc(N)o2)c1
pKd: 5.51
--
chemicalStructure: NC(=O)c1ccc2ccccc2c1
pKd: 5.74

Req: Consider the compound shown here: FC(F)(F)c1cccc(-c2nnco2)c1 What is its recorded pKd?
Resp: 5.19

Req: Entry to check: Nc1cccc(Br)n1
Resp: 5.00

Req: Another compound: CC(C)(C)c1ccc(C(N)=O)cc1
Resp: 6.05

---

# testedSystem: Transcriptional regulator MvfR (Pseudomonas aeruginosa PA14)
# Sequence (A0A072ZLE6 whole entry): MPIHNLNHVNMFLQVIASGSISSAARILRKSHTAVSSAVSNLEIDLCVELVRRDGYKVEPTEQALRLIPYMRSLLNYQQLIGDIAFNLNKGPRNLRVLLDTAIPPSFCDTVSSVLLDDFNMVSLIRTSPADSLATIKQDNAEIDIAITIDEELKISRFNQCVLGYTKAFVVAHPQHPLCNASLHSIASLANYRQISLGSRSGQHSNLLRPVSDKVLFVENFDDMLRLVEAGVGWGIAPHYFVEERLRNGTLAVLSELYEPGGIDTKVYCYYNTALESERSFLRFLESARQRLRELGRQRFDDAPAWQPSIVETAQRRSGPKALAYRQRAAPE
# assayProtocol: Antagonist activity at Pseudomonas aeruginosa PA14 PqsR expressed in pqs gene-deficient Pseudomonas aeruginosa PA14 by beta-galactosidase reporter gene assay
observationType: pEC50
Bear in mind: pEC50 is minus log10 of a mol/L concentration; give just that figure.

Req: Lab note: need pEC50 for Nc1nnc(-c2cccc(C(F)(F)F)c2)o1 on Transcriptional regulator MvfR (Pseudomonas aeruginosa PA14), anyone have it?
Resp: 4.41
